Each item that follows carries a reported IC50.
target: human CXCR3A (Homo sapiens (Human)); assay: FLIPR assay (inhibition of CXCL10-induced calcium signal); details: engineered CHO-K1 cells expressing human CXCR3A coupled to Galpha(16); Fluo-4-AM; CXCL10 agonist 20 nM; mean values where determined several times
Sequence (P49682 whole entry): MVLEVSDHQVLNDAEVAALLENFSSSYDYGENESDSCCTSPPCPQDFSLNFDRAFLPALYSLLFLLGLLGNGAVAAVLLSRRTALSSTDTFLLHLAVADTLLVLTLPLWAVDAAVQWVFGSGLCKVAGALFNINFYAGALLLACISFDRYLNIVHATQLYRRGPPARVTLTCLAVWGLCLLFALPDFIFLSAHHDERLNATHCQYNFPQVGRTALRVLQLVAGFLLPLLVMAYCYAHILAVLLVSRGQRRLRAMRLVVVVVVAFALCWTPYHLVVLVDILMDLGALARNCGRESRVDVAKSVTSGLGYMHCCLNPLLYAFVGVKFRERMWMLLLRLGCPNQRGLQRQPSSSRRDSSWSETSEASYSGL
Field: numeric (nM). Do not append units.

{"STRUCTURE_SMILES_STRING": "COc1nc(OC)nc(N2CCc3cccc(N4CCN(C(=O)Cn5cnc6cccnc65)[C@H](C)C4)c3C2)n1", "ASSAY_SYSTEM": "human CXCR3A (Homo sapiens (Human))", "REPORTED_MEASUREMENT": 3.39}

Identify measured IC50 obtained with human CXCR3A (Homo sapiens (Human)) for C[C@@H]1CN(c2ccc(C(F)(F)F)c3c2CN(c2ccccc2)CC3)CCN1C(=O)Cn1cnc2cccnc21 .
6.19

Identify measured IC50 obtained with human CXCR3A (Homo sapiens (Human)) for C[C@@H]1CN(c2cccc3c2CN(C(=O)Cc2cccnc2)CC3)CCN1C(=O)Cn1cnc2cccnc21 .
668

Identify measured IC50 obtained with human CXCR3A (Homo sapiens (Human)) for Cc1cc(C)n(CC(=O)N2CCN(c3ccc(C(F)(F)F)c4c3CN(c3nc(-c5ccccn5)cs3)CC4)C[C@H]2C)n1 .
11

Identify measured IC50 obtained with human CXCR3A (Homo sapiens (Human)) for C[C@@H]1CN(c2cccc3c2CN(c2ncc(-c4ccccc4)s2)CC3)CCN1C(=O)Cn1cnc2cccnc21 .
13.3

Identify measured IC50 obtained with human CXCR3A (Homo sapiens (Human)) for Cc1ccc(C(=O)N2CCc3cccc(N4CCN(C(=O)Cn5cnc6cccnc65)[C@H](C)C4)c3C2)cc1 .
111

Identify measured IC50 obtained with human CXCR3A (Homo sapiens (Human)) for COc1cccc(N2CCc3cccc(N4CCN(C(=O)Cn5cnc6cccnc65)[C@H](C)C4)c3C2)c1 .
4.38

Identify measured IC50 obtained with human CXCR3A (Homo sapiens (Human)) for C[C@@H]1CN(c2cccc3c2CN(C(=O)c2ccc4ncccc4c2)CC3)CCN1C(=O)Cn1cnc2cccnc21 .
866

Identify measured IC50 obtained with human CXCR3A (Homo sapiens (Human)) for O=C(Cn1ccc2cccnc21)N1CCN(c2cccc3c2CN(C(=O)OCc2ccccc2)CC3)CC1 .
12.4
